Target: human dopamine D1 receptor (Homo sapiens, UniProt P21728)
Construct: A 1.4 Kb Hind III to Xho I fragment was subcloned into the vector pMMLV; expressed in transfected cells; host or cells: CHO cells, clone CHO-D1M#9 (plasmid pHD1MMLV), membranes
Sequence (P21728 whole entry, the tested form may be a part): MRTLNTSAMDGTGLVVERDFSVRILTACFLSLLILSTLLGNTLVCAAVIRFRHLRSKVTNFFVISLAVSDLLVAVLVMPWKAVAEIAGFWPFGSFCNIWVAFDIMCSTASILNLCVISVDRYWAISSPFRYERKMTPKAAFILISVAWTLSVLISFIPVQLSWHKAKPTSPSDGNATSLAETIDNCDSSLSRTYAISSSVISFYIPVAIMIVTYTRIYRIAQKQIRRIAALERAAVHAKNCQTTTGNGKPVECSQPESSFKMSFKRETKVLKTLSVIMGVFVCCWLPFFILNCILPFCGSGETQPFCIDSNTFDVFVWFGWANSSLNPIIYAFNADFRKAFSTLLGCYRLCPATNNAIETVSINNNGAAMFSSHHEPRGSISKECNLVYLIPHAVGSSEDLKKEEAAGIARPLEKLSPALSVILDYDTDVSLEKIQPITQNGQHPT
Test: [3H]-SCH-23390 binding to cloned human dopamine D1 receptors (CHO cell membranes)
Details: competitive binding, [3H]-SCH-23390, cloned human D1 in CHO membranes; read-out: D1 affinity Ki
pKi: −log10 of the molar value. Where a name gives a salt, the structure may show the parent alone.
PROPERTY: pKi

{"COMPOUND": "Cc1ccc2c(c1O)C[C@@H](C1CCN(Cc3ccc(F)c(C(F)(F)F)c3)CC1)O[C@H]2CN [Example 83, dihydrochloride]", "EXPERIMENTAL RESULT": 7.80}
{"COMPOUND": "Cc1ccc2c(c1O)C[C@@H](C1CCN(S(=O)(=O)Cc3ccccc3[N+](=O)[O-])CC1)O[C@H]2CN [Example 158, hydrochloride]", "EXPERIMENTAL RESULT": 7.02}
{"COMPOUND": "CNC[C@@H]1O[C@H](C2CCN(Cc3ccccc3)CC2)Cc2c1ccc(C)c2O [Example 171]", "EXPERIMENTAL RESULT": 7.01}
{"COMPOUND": "Cc1ccc2c(c1O)C[C@@H](C1CCN(CCO)CC1)O[C@H]2CN [Example 43, dihydrochloride]", "EXPERIMENTAL RESULT": 7.06}
{"COMPOUND": "C=CCNC[C@@H]1O[C@H](C2CCN(Cc3ccccc3)CC2)Cc2c1ccc(C)c2O [Example 186]", "EXPERIMENTAL RESULT": 5.72}
{"COMPOUND": "C=CCN(C)C[C@@H]1O[C@H](C2CCN(Cc3ccccc3)CC2)Cc2c1ccc(C)c2O [Example 176]", "EXPERIMENTAL RESULT": 5.77}
{"COMPOUND": "Cc1ccc2c(c1O)C[C@@H](C1CCN(Cc3ccc(F)cc3F)CC1)O[C@H]2CN [Example 50, dihydrochloride]", "EXPERIMENTAL RESULT": 7.33}
{"COMPOUND": "Cc1ccc2c(c1O)C[C@@H](C1CCN(C(C)c3ccccc3)CC1)O[C@H]2CN (some centres unmarked) [Example 51, dihydrochloride]", "EXPERIMENTAL RESULT": 6.81}
{"COMPOUND": "Cc1ccc2c(c1O)C[C@@H](C1CCN(CC(C)(C)C)CC1)O[C@H]2CN [Example 42, dihydrochloride]", "EXPERIMENTAL RESULT": 6.40}
{"COMPOUND": "Cc1ccc2c(c1O)C[C@@H](C1CCN(CCC(C)NC(=O)c3ccc(C(F)(F)F)cc3)CC1)O[C@H]2CN (some centres unmarked) [Example 16, dihydrochloride]", "EXPERIMENTAL RESULT": 6.83}
{"COMPOUND": "Cc1ccc2c(c1O)C[C@@H](C1CCN(Cc3ccc(C(F)(F)F)c(F)c3)CC1)O[C@H]2CN [Example 82, dihydrochloride]", "EXPERIMENTAL RESULT": 7.81}
{"COMPOUND": "Cc1ccc2c(c1O)C[C@@H](C1CCN(CCC(C)NC(=O)c3ccc(Br)cc3)CC1)O[C@H]2CN (some centres unmarked) [Example 23, dihydrochloride]", "EXPERIMENTAL RESULT": 7.04}
{"COMPOUND": "Cc1ccc2c(c1O)C[C@@H](C1CCN(S(=O)(=O)c3ccc(C(C)C)cc3)CC1)O[C@H]2CN [Example 145, hydrochloride]", "EXPERIMENTAL RESULT": 6.84}
{"COMPOUND": "Cc1ccc2c(c1O)C[C@@H](C1CCN(CCC(C)c3noc4cc(F)ccc34)CC1)O[C@H]2CN (some centres unmarked) [Example 104, dihydrochloride]", "EXPERIMENTAL RESULT": 7.15}
